system: METTL3/METTL14 (Homo sapiens)
Sequence (Q86U44 whole entry, species assumed): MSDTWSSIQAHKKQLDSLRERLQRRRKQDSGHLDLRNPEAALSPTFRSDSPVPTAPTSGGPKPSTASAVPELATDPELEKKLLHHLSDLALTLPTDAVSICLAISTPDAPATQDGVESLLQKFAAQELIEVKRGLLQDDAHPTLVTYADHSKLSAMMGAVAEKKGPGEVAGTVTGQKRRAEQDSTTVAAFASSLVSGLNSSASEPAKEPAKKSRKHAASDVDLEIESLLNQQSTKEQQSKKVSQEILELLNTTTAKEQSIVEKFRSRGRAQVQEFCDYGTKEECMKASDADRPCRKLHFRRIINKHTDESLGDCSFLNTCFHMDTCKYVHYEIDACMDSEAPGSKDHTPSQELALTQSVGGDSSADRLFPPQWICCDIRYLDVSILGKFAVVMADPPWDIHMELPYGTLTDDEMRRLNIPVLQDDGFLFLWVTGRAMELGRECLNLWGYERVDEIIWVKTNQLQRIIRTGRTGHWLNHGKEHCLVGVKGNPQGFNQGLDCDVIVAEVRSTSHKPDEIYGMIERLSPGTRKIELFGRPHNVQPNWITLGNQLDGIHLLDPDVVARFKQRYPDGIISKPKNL
Sequence (Q9HCE5 whole entry partner, species assumed): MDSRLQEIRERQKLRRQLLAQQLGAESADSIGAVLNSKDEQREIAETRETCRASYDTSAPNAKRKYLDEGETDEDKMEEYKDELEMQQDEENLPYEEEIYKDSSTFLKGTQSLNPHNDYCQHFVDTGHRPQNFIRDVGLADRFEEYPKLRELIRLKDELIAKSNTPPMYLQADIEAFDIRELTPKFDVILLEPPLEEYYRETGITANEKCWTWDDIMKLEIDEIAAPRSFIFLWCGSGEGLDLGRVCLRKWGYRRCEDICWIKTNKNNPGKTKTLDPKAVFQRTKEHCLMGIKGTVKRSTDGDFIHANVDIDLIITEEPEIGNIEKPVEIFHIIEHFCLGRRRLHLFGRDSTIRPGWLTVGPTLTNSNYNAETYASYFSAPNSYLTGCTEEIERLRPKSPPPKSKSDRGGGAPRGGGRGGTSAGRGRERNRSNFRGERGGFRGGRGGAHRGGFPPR
testProtocol: METTL3-14 standard enzyme assay (3H-SAM flashplate)
settings: Table 4; METTL3 biochemical assay
Procedure: METTL3-14 Standard Enzyme Assay Assays were performed in a 25 μl-volume in 384-well V-bottom polypropylene microplates (Greiner Bio-One, cat. No. 781280) at ambient temperature. […] Following two washing cycles with 0.1% Tween-20, the plates were sealed and read on a TopCount (PerkinElmer, Waltham, MA) plate-based scintillation counter. […]
pIC50: −log10 of the molar value.
Reported pIC50 values are given for each entry in this list.

# compound, pIC50
records = [
    ("Cn1ccc(-c2cn([C@@H]3O[C@H](C(=O)NC4CCN(CCO)CC4)[C@@H](O)[C@H]3O)c3ncnc(N)c23)n1", "6.00 to 7.00"),
    ("Cc1ccc(Cl)c(NC(=O)[C@H]2O[C@@H](n3cc(-c4ccn(C)n4)c4c(N)ncnc43)[C@H](O)[C@@H]2O)c1", "≤ 6.00"),
    ("COCCNc1ccnc(NC(=O)[C@H]2O[C@@H](n3cc(-c4ccn(C)n4)c4c(N)ncnc43)[C@H](O)[C@@H]2O)c1", "6.00 to 7.00"),
    ("CNC(=O)Nc1cc(NC(=O)[C@H]2O[C@@H](n3cc(-c4ccn(C)n4)c4c(N)ncnc43)[C@H](O)[C@@H]2O)ccn1", "6.00 to 7.00"),
    ("Cn1ccc(-c2cn([C@@H]3O[C@H](C(=O)NC4CCN(Cc5ccccc5)CC4)[C@@H](O)[C@H]3O)c3ncnc(N)c23)n1", "7.00 to 8.00"),
]

Ask: Look up pIC50: Cc1ccc(C(N)=O)cc1NC(=O)[C@H]1O[C@@H](n2cc(-c3ccn(C)n3)c3c(N)ncnc32)[C@H](O)[C@@H]1O
Result: ≤ 6.00

Ask: Could you do the same for COCCn1ccc(-c2cn([C@@H]3O[C@H](C(=O)NC4CCN(C)CC4)[C@@H](O)[C@H]3O)c3ncnc(N)c23)n1 , please?
Result: 6.00 to 7.00

Ask: Now give it for Cn1ccc(-c2cn([C@@H]3O[C@H](C(=O)NC4CCC4)[C@@H](O)[C@H]3O)c3ncnc(N)c23)n1 too.
Result: 6.00 to 7.00

Ask: Moving on to Cn1ccc(-c2cn([C@@H]3O[C@H](C(=O)Nc4cc[nH]n4)[C@@H](O)[C@H]3O)c3ncnc(N)c23)n1
Result: ≤ 6.00

Ask: What would you report for Cn1ccc(-c2cn([C@@H]3O[C@H](C(=O)NC4CCN(CC5CCC5)CC4)[C@@H](O)[C@H]3O)c3ncnc(N)c23)n1 ?
Result: 7.00 to 8.00

Ask: Queued: CN(C)S(=O)(=O)c1cccc(NC(=O)[C@H]2O[C@@H](n3cc(-c4ccn(C)n4)c4c(N)ncnc43)[C@H](O)[C@@H]2O)c1
Result: ≤ 6.00

Ask: Subsequent entry: CC(=O)NCCCN(C(=O)[C@H]1O[C@@H](n2cc(-c3ccn(C)n3)c3c(N)ncnc32)[C@H](O)[C@@H]1O)C1CCN(C)CC1
Result: ≤ 6.00

Ask: # repeat for CN1CCC(N(CCCC#N)C(=O)[C@H]2O[C@@H](n3cc(-c4ccn(C)n4)c4c(N)ncnc43)[C@H](O)[C@@H]2O)CC1
Result: 6.00 to 7.00

FYI, the data here is from patent US20240051985A1.
